// provenance: patent US8933113B2

Recorded pIC50, one value per entry.
Biological target: full-length human Mineralocorticoid Receptor (MR) (Homo sapiens, UniProt P08235)
Construct: host or cells: PathHunter CHO-K1 cells
Assay: human MR NH Pro assay (PathHunter Protein:Protein interaction assay), MR antagonist activity
Type: cell-based
Conditions: PathHunter CHO-K1 cells overexpressing human MR; aldosterone about 0.3 nM; 6 hours at 37° C.; luminescence; read-out: Primary Assay IP rating (IP = inflection point for a given dose-response titration curve)
pIC50: −log10 of the molar value.

Field: example entries. Status: answers known.
- COC(=O)C(c1ccc(F)cc1Cl)n1ccc2cc(F)ccc21 (stereo not shown) [Compound 13]: 5.30 to 6.30
- CCC(/C=C/C#N)(c1ccc(Cl)cc1)n1ccc2c(NS(C)(=O)=O)cccc21 (stereo not shown) [Compound 127]: > 7.00
- COC(=O)C(c1ccc(Br)cc1)n1ccc2c(NS(C)(=O)=O)cccc21 (stereo not shown) [Compound 24]: 5.30 to 6.30
- CCC(c1ccc(Cl)cc1)(n1ncc2c(NS(=O)(=O)NC)cccc21)C(C)(C)O (stereo not shown) [Compound 94]: > 7.00
- CCC(c1ccc(C(F)(F)F)cc1)(C(C)O)n1ccc2c(NS(C)(=O)=O)cccc21 (single isomer, unassigned) [Compound 113]: > 7.00
- CCC(c1ccc(Cl)cc1)(C(C)O)n1ncc2c(NS(C)(=O)=O)cccc21 (single isomer, unassigned) [Compound 106]: > 7.00
- COC(=O)C(c1ccc(F)cc1Cl)n1ccc2cccc(F)c21 (stereo not shown) [Compound 15]: 5.30 to 6.30
- CCC(c1ccc(Cl)cc1)(C(C)O)n1ncc2c(NS(=O)(=O)NC)cccc21 (stereo not shown) [Compound 118]: > 7.00

query: Complete the entry with pIC50 for COC(=O)C(c1ccc(F)cc1Cl)n1ccc2cc(Cl)ccc21 (stereo not shown) [Compound 12]
result: 5.30 to 6.30

----------
Molecular target: full-length human Mineralocorticoid Receptor (MR) (Homo sapiens, UniProt P08235)
Construct: host or cells: PathHunter CHO-K1 cells
Sequence (P08235 1-984): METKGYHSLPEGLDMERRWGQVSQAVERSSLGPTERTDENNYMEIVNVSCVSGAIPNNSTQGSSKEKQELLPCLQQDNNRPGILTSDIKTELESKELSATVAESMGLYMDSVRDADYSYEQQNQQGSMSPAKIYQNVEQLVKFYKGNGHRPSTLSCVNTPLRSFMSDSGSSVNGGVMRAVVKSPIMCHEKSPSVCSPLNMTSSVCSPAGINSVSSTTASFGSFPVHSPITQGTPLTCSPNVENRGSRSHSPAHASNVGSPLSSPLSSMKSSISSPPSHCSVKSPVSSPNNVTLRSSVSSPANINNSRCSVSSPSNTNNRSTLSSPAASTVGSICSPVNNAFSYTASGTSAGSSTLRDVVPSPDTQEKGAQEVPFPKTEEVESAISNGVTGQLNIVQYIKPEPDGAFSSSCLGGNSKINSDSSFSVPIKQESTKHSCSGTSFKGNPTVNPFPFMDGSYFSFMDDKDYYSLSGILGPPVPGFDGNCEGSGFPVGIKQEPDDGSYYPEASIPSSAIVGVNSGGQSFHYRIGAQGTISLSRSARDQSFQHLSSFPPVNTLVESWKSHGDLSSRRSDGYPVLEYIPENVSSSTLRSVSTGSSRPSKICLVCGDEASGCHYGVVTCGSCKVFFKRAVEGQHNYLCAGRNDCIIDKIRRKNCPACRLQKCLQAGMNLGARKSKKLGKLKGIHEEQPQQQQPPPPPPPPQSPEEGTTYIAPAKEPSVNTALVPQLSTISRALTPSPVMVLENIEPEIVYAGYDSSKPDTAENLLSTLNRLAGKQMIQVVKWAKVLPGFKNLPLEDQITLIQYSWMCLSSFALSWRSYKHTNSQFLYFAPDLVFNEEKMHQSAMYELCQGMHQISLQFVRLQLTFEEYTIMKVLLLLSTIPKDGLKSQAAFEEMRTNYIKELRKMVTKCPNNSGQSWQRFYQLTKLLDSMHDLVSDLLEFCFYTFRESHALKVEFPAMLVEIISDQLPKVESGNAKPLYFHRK
Experiment: human MR NH Pro assay (PathHunter Protein:Protein interaction assay), MR antagonist activity
Assay type: cell-based
Conditions: PathHunter CHO-K1 cells overexpressing human MR; aldosterone about 0.3 nM; 6 hours at 37° C.; luminescence; read-out: Primary Assay IP rating (IP = inflection point for a given dose-response titration curve)
MEASURE: IC50

Field: example entries. Status: answers known.
• CCC(CC#N)(c1ccc(Cl)cc1)n1ccc2c(NS(C)(=O)=O)cccc21 (single isomer, unassigned) [Compound 121] = < 100 nM
• CC[C@](C(=O)NC(C)C)(c1ccc(Cl)cc1)n1ccc2c(NS(C)(=O)=O)cccc21 [Compound 44] = 100 to 500 nM
• CCC(c1ccc(Cl)cc1)(c1nnc(C)o1)n1ccc2c(NS(C)(=O)=O)cccc21 (stereo not drawn) [Compound 68] = 100 to 500 nM
• CCC(c1ccc(C(F)(F)F)cc1)(n1ncc2c(NS(C)(=O)=O)cccc21)C(C)(C)O (single isomer, unassigned) [Compound 93] = < 100 nM
• CCC(C=C(C)C#N)(c1ccc(Cl)cc1)n1ccc2c(NS(C)(=O)=O)cccc21 (mixture of isomers) [Compound 131] = < 100 nM

query: Complete the entry with IC50 for CCC(c1ccc(Cl)cc1)(C(C)O)n1ccc2c(NS(C)(=O)=O)cccc21 (single isomer, unassigned) [Compound 109]
result: < 100 nM

query: Complete the entry with IC50 for COC(=O)C(CCF)(c1ccc(Cl)cc1)n1ccc2c(NS(C)(=O)=O)cccc21 (stereo not drawn) [Compound 156]
result: < 100 nM

query: Complete the entry with IC50 for CCC(C(=O)CC#N)(c1ccc(Cl)cc1)n1ccc2c(NS(C)(=O)=O)cccc21 (single isomer, unassigned) [Compound 146]
result: < 100 nM

query: Complete the entry with IC50 for CCC(C(=O)OC)(c1ccc(Cl)cc1)n1ccc2c(CCS(C)(=O)=O)cccc21 (stereo not drawn) [Compound 153]
result: < 100 nM

query: Complete the entry with IC50 for CCC(C(=O)NCCC#N)(c1ccc(Cl)cc1)n1ccc2c(NS(C)(=O)=O)cccc21 (stereo not drawn) [Compound 48]
result: 500 to 5000 nM

query: Complete the entry with IC50 for CCC(CCC#N)(c1ccc(Cl)cc1)n1ccc2c(NS(C)(=O)=O)cccc21 (single isomer, unassigned) [Compound 140]
result: < 100 nM

query: Complete the entry with IC50 for COC(=O)C(c1ccc(F)cc1Cl)n1ccc2cccc(OCc3ccccc3)c21 (stereo not drawn) [Compound 16]
result: 500 to 5000 nM

----------
Target: full-length human Mineralocorticoid Receptor (MR) (Homo sapiens, UniProt P08235)
Construct: host or cells: PathHunter CHO-K1 cells
Experiment: human MR NH Pro assay (PathHunter Protein:Protein interaction assay), MR antagonist activity
Format: cell-based
Conditions: PathHunter CHO-K1 cells overexpressing human MR; aldosterone about 0.3 nM; 6 hours at 37° C.; luminescence; read-out: Primary Assay IP rating (IP = inflection point for a given dose-response titration curve)
Recorded IC50, one value per entry.

Field: example entries. Status: answers known.
* COC(=O)CC(C(=O)OC)(c1ccc(Cl)cc1)n1ccc2c(NS(C)(=O)=O)cccc21 (stereo not drawn) [Compound 35] | < 100 nM
* CCC(/C=C/C#N)(c1ccc(Cl)cc1)n1ncc2c(N(S(C)(=O)=O)S(C)(=O)=O)cc(F)cc21 (stereo not drawn) [Compound 136] | < 100 nM
* CCC(CCO)(c1ccc(Cl)cc1)n1ccc2c(NS(C)(=O)=O)cccc21 (single isomer, unassigned) [Compound 161] | < 100 nM
* CCC(CCC#N)(c1ccc(C(F)(F)F)cc1)n1ncc2c(NS(C)(=O)=O)cccc21 (single isomer, unassigned) [Compound 141] | < 100 nM
* C=CC(CC)(c1ccc(Cl)cc1)n1ccc2c(NS(C)(=O)=O)cccc21 (stereo not drawn) [Compound 175] | 100 to 500 nM

query: Complete the entry with IC50 for CCC(/C=C/C#N)(c1ccc(Cl)cc1)n1ncc2c(NS(C)(=O)=O)cc(F)cc21 (stereo not drawn) [Compound 130]
result: < 100 nM

query: Complete the entry with IC50 for CCC(c1ccc(Cl)cc1)(n1ccc2c(NS(C)(=O)=O)cc(F)cc21)C(C)(C)O (single isomer, unassigned) [Compound 90]
result: < 100 nM

query: Complete the entry with IC50 for CC[C@@](c1ccc(Cl)cc1)(c1nnc(C2CC2)o1)n1ccc2c(NS(C)(=O)=O)cccc21 [Compound 67]
result: 100 to 500 nM

query: Complete the entry with IC50 for CCC(CC#N)(c1ccc(Cl)cc1)n1ccc2c(NS(C)(=O)=O)cc(F)cc21 (single isomer, unassigned) [Compound 125]
result: < 100 nM

query: Complete the entry with IC50 for CCC(CCC#N)(c1ccc(Cl)cc1)n1ncc2c(NS(C)(=O)=O)cc(F)cc21 (stereo not drawn) [Compound 145]
result: < 100 nM

query: Complete the entry with IC50 for COC(=O)C(c1ccc(OC)cc1)n1ccc2c([N+](=O)[O-])cccc21 (stereo not drawn) [Compound 5]
result: 500 to 5000 nM

query: Complete the entry with IC50 for CCC(c1ccc(Cl)cc1)(c1nnc(-c2ccccc2)o1)n1ccc2c(NS(C)(=O)=O)cccc21 (stereo not drawn) [Compound 70]
result: 500 to 5000 nM

query: Complete the entry with IC50 for CCC(CCSC)(c1ccc(Cl)cc1)n1ccc2c(NS(C)(=O)=O)cccc21 (stereo not drawn) [Compound 166]
result: < 100 nM

query: Complete the entry with IC50 for CC[C@@](c1ccc(Cl)cc1)(c1nc(-c2ccccc2)n[nH]1)n1ccc2c(NS(C)(=O)=O)cccc21 [Compound 64]
result: 500 to 5000 nM

query: Complete the entry with IC50 for CCC(c1ccc(Cl)cc1)(C1CC1C#N)n1ncc2c(NS(C)(=O)=O)cccc21 (stereo not drawn) [Compound 120]
result: < 100 nM
